Test system: IL-6 (mouse)
Assay name: Antiinflammatory activity in C57BL/6 mouse BMDCs assessed as inhibition of LPS-stimulated IL-6 production treated 1 hr before LPS challenge measured 16 hrs post stimulation by ELISA
Run conditions: bmdc
Assignment: determine reported IC50 for the given molecules.

Examples with their reported IC50 follow.
1. COc1cc(/C=C/CO)cc(OC)c1O[C@@H]1O[C@H](CO)[C@@H](O)[C@H](O)[C@H]1O[C@@H]1OC[C@](O)(CO)[C@H]1O ... > 50 µM
2. CO[C@@H](/C=C/c1ccc(O)cc1)C[C@@H](O)CCc1ccc(O)cc1 ... 0.68 µM
3. C/C(=C\CO)CCC[C@H](C)CCC[C@H](C)CCCC(C)C [TRANS-PHYTOL] ... 2.02 µM
4. C[S+]([O-])c1ccc(-c2nc(-c3ccc(F)cc3)c(-c3ccncc3)[nH]2)cc1 (stereo unspecified) ... 3.45 µM
5. COc1cc([C@@H]2CC(=O)c3c(O)cc(O[C@@H]4O[C@H](CO)[C@@H](O)[C@H](O)[C@H]4O[C@@H]4OC[C@](O)(CO[C@@H]5OC[C@](O)(CO)[C@H]5O)[C@H]4O)cc3O2)ccc1O [VISCUMNEOSIDE V] ... > 50 µM

INPUT: For `COc1cc(O)c2c(c1)O[C@H](c1ccc(O[C@@H]3O[C@H](CO)[C@@H](O)[C@H](O)[C@H]3O[C@@H]3OC[C@](O)(CO)[C@H]3O)c(OC)c1)CC2=O` , what is its reported IC50?
OUTPUT: > 50 µM
